Target: IKZF2 (Homo sapiens, UniProt Q96SW2+Q9UKS7)
Construct: expressed in transfected cells; host or cells: HEK293T (lentiviral transduction, puromycin selection, FACS sorting)
Sequence (Q9UKS7 whole entry): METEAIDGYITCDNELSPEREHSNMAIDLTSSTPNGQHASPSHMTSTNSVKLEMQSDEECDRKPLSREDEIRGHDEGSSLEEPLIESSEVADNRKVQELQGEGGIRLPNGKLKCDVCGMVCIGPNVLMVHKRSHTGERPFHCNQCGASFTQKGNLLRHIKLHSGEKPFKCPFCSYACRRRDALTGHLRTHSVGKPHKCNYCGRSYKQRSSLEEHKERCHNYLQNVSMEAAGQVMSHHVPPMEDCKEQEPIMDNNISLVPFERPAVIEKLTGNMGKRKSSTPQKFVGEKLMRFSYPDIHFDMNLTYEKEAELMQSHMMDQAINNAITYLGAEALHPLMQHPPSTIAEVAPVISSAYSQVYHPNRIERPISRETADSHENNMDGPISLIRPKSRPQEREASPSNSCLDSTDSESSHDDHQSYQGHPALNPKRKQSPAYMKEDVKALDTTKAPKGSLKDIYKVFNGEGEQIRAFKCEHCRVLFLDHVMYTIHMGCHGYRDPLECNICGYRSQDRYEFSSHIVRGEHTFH
Sequence (Q96SW2 whole entry): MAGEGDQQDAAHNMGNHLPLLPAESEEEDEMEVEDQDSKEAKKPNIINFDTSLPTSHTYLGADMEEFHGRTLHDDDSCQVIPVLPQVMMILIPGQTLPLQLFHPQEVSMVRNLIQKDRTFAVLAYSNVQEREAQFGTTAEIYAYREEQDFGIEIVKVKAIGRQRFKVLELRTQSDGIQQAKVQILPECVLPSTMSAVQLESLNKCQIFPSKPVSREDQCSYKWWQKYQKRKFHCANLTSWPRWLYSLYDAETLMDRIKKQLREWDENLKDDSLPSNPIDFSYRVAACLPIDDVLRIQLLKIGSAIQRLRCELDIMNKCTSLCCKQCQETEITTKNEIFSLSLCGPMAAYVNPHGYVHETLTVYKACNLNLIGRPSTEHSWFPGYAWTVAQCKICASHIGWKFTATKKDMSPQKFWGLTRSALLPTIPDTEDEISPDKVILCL
Sequence (Q16531 whole entry partner): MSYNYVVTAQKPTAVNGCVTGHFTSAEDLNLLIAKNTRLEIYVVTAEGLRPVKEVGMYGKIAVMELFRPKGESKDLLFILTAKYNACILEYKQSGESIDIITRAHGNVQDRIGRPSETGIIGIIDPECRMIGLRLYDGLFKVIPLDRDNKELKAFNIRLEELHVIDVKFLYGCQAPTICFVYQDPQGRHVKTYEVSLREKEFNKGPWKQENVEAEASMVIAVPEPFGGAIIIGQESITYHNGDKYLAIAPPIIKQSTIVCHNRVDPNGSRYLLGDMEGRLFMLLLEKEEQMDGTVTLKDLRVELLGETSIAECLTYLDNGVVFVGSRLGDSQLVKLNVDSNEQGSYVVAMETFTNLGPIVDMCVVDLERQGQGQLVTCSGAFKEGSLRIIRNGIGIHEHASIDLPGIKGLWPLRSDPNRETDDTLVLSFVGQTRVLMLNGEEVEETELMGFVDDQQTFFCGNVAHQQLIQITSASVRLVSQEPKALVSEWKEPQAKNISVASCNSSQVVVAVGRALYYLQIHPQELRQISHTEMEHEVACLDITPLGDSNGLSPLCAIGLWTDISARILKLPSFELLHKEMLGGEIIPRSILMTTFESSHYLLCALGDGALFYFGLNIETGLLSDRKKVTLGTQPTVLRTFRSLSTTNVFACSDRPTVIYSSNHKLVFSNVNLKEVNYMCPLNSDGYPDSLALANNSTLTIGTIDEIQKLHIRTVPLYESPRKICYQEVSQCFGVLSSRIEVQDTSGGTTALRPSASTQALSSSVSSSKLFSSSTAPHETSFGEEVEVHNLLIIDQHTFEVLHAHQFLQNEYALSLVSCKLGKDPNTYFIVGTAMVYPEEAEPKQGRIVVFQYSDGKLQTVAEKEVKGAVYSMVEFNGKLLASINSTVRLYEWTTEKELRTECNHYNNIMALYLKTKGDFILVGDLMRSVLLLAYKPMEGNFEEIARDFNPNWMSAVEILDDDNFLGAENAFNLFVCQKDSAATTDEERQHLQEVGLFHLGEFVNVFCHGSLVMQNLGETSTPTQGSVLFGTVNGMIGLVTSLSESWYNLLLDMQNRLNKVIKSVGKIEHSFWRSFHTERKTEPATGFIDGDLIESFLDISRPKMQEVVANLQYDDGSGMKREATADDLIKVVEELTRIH
Experiment: Flow cytometry for measuring degradation, HEK293T GFP-POI reporter cells (IKZF2)
Type: cell-based
Conditions: 100 nM, 24 h, HEK293T GFP reporter
measured_endpoint: IKZF2% degradation at 100 nM (%)

Here is how some molecules turned out for IKZF2% degradation at 100 nM.
• COc1ccc2cccc(CC(=O)Nc3ccc4c(c3)CN(C3CCC(=O)NC3=O)C4=O)c2c1 (stereo not shown) = 92.2
• O=C1CCC(N2Cc3cc(NC(=O)C4=Cc5ccc(C(F)(F)F)cc5OC4)ccc3C2=O)C(=O)N1 (stereo not shown) = 75.1
• CS(=O)(=O)c1ccc2cc(C(=O)Nc3ccc4c(c3)CN(C3CCC(=O)NC3=O)C4=O)ccc2c1 (stereo not shown) = 56.0
• O=C1CCC(N2Cc3cc(NC(=O)C4=COc5ccccc5O4)ccc3C2=O)C(=O)N1 (stereo not shown) = 70.8
• O=C1CCC(N2Cc3cc(NC(=O)c4ccc5cc(O)ccc5c4)ccc3C2=O)C(=O)N1 (stereo not shown) = 60
• COc1ccc2c(c1)C=C(C(=O)Nc1ccc3c(c1)CN(C1CCC(=O)NC1=O)C3=O)CO2 (stereo not shown) = 75
• COc1cccc2c1OCC(C(=O)Nc1ccc3c(c1)CN(C1CCC(=O)NC1=O)C3=O)=C2 (stereo not shown) = 82.3
• O=C1CCC(N2Cc3cc(NC(=O)c4ccc5ncsc5c4)ccc3C2=O)C(=O)N1 (stereo not shown) = 41.8

1 = COc1cc(Br)cc2c1OCC(C(=O)Nc1ccc3c(c1)CN(C1CCC(=O)NC1=O)C3=O)=C2 (stereo not shown)
2 = O=C1CCC(N2Cc3cc(NC(=O)c4ccc5c(c4)OCCO5)ccc3C2=O)C(=O)N1 (stereo not shown)
Sorting ascending by IKZF2% degradation at 100 nM, which comes first: 1 or 2 ? Give the label under which the chosen entry appears.
2
